Cited source for all entries: the supplement of paper PMC9112550

System: Escherichia coli TOP10
assay_protocol: shrunken log2 fold change of peptide-encoding DNA abundance (4.5 h post-induction vs induction); higher = less antimicrobial activity (less host growth inhibition)
experimental_setup: time post-induction: 4.5 h; library: site-saturation at positions 5, 18, 19, 20
reported_property: shrunken log2 fold change

>>> print(df.to_string())
         construct_sequence          reported_property    value
 0  RRIRGRPPRLPRPRPRPTCDPRP  shrunken log2 fold change    0.432
 1  RRIRKRPPRLPRPRPRPGRVPRP  shrunken log2 fold change     0.58
 2  RRIRCRPPRLPRPRPRPMPEPRP  shrunken log2 fold change    0.122
 3  RRIRKRPPRLPRPRPRPPWFPRP  shrunken log2 fold change    0.309
 4  RRIRQRPPRLPRPRPRPHSGPRP  shrunken log2 fold change    -0.01
 5  RRIRMRPPRLPRPRPRPWNGPRP  shrunken log2 fold change  -0.0377
 6  RRIRTRPPRLPRPRPRPQCSPRP  shrunken log2 fold change   0.0299
 7  RRIRARPPRLPRPRPRPNWCPRP  shrunken log2 fold change    0.206
 8  RRIRMRPPRLPRPRPRPYLQPRP  shrunken log2 fold change  -0.0699
 9  RRIRARPPRLPRPRPRPIGYPRP  shrunken log2 fold change  -0.0969
10  RRIRARPPRLPRPRPRPSEEPRP  shrunken log2 fold change    0.452
11  RRIRIRPPRLPRPRPRPEMSPRP  shrunken log2 fold change  -0.0264
12  RRIRLRPPRLPRPRPRPMRCPRP  shrunken log2 fold change   0.0565
13  RRIRFRPPRLPRPRPRPMPTPRP  shrunken log2 fold change    0.432
14  RRIRYRPPRLPRPRPRPQMYPRP  shrunken log2 fold change   -0.286

* * *

Parameter: shrunken log2 fold change. Scope: all listed entries.
System: Escherichia coli TOP10;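 also: peptides expressed intracellularly from a pBAD plasmid library in pooled LB shake-flask culture, induced with 0.3% L-arabinose, DNA abundance read by NGS, three biological replicates, DESeq2 with apeglm shrinkage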
assay_protocol: shrunken log2 fold change of peptide-encoding DNA abundance (4.5 h post-induction vs induction); higher = less antimicrobial activity (less host growth inhibition)
experimental_setup: time post-induction: 4.5 h; library: site-saturation at positions 5, 18, 19, 20
reported_property: shrunken log2 fold change

>>> df
         construct_sequence    value
 0  RRIRGRPPRLPRPRPRPGPIPRP    0.619
 1  RRIRLRPPRLPRPRPRPEMPPRP    0.365
 2  RRIRQRPPRLPRPRPRPYCNPRP    -1.38
 3  RRIRIRPPRLPRPRPRPRFSPRP   -0.231
 4  RRIRNRPPRLPRPRPRPCHRPRP   -0.139
 5  RRIRYRPPRLPRPRPRPELCPRP   -0.403
 6  RRIRGRPPRLPRPRPRPEMDPRP    0.982
 7  RRIRLRPPRLPRPRPRPNIRPRP   -0.585
 8  RRIRVRPPRLPRPRPRPWNGPRP   -0.277
 9  RRIRLRPPRLPRPRPRPRVFPRP  -0.0171
10  RRIRMRPPRLPRPRPRPYYHPRP   -0.459
11  RRIRNRPPRLPRPRPRPTAPPRP    0.517
12  RRIRRRPPRLPRPRPRPLLVPRP    0.329
13  RRIRGRPPRLPRPRPRPNTTPRP    0.325
14  RRIRIRPPRLPRPRPRPCRCPRP   -0.319
